B1: INTS3 (parent)
chain: AQLQALRQKEVDFCISLLRERFME

Variants of: B1
method_summary: protein stability index of a GFP-peptide fusion (GPS, HEK-293T) (PSI 1-6); higher = more stable;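 note: lentivirally expressed fusions sorted by FACS into six bins by GFP to DsRed ratio, PSI derived from sequencing read proportions per bin multiplied by bin number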
applied_conditions: c terminus: a fixed tail appended
property_measured: protein stability index
Keep it simple and answer with nothing but the number.

// known answers, use as guide
MQLQALRQKEVDFCISLLRERFME [A1M] | 2.4
AQLQALRQKCVDFCISLLRERFME [E10C] | 1.02
NQLQALRQKEVDFCISLLRERFME [A1N] | 2.73

Ask: Quick one: give measured protein stability index for AQLQALRQPEVDFCISLLRERFME [K9P]
Result: 2.91

Ask: Quick one: give measured protein stability index for AQLQALRQKEYDFCISLLRERFME [V11Y]
Result: 2.73

Ask: Quick one: give measured protein stability index for AQLQALRQKEVDVCISLLRERFME [F13V]
Result: 2.7

Ask: Quick one: give measured protein stability index for AQDQALRQKEVDFCISLLRERFME [L3D]
Result: 1.81

Ask: Quick one: give measured protein stability index for AQLQALRQEEVDFCISLLRERFME [K9E]
Result: 2.18

Ask: Quick one: give measured protein stability index for AQLQYLRQKEVDFCISLLRERFME [A5Y]
Result: 2.68

Ask: Quick one: give measured protein stability index for AQLQSLRQKEVDFCISLLRERFME [A5S]
Result: 2.33

Ask: Quick one: give measured protein stability index for AQQQALRQKEVDFCISLLRERFME [L3Q]
Result: 1.78

Ask: Quick one: give measured protein stability index for AQLQALRQKEVDFCIFLLRERFME [S16F]
Result: 4.27

Ask: Quick one: give measured protein stability index for AQLQALRQKEVDFCISLLPERFME [R19P]
Result: 2.21

Ask: Quick one: give measured protein stability index for AQLQALRQKEVDFCISVLRERFME [L17V]
Result: 3.89

Ask: Quick one: give measured protein stability index for AQLQAIRQKEVDFCISLLRERFME [L6I]
Result: 1.93

Ask: Quick one: give measured protein stability index for LQLQALRQKEVDFCISLLRERFME [A1L]
Result: 1.61
